Test system: Substance P Induced Relaxation of the Pig Coronary Arteries
assay summary: Antagonism of substance P induced relaxation of the pig coronary arteries
test parameters: test compound concentration 3 × 10^-9 (unit not given), 30 min incubation
Procedure: Antagonism of Substance P Induced Relaxation of the Pig Coronary Arteries Segments of coronary arteries taken from pigs (killed by injection of an overdose of sodium pentobarbital) were inverted and mounted for recording of isometric tension in organ baths (volume 20 ml) with the endothelium at the outside. The preparations were bathed in Krebs-Henseleit solution. The solution was kept at 37° C. and gassed with a mixture of O2 /CO2 (95/5). […]
parameter measured: % inhibition of the response to 10^-9 M substance P (%)
Return type: number; implicit unit %.

[
  {
    "compound": "O=C(c1cc(C(F)(F)F)cc(C(F)(F)F)c1)N1CCC(N2CCC(C3c4ccccc4Cn4ccnc43)CC2)CC1Cc1ccccc1 (stereo not drawn) [Compound 115]",
    "units of measure": "%",
    "result value": 60.2
  },
  {
    "compound": "O=C(c1cc(C(F)(F)F)cc(C(F)(F)F)c1)N1CC[C@@H](N2CCC(=C3c4ccccc4CCn4ccnc43)CC2)C[C@@H]1Cc1ccccc1 (relative stereo) [Compound 22]",
    "units of measure": "%",
    "result value": 83.2
  },
  {
    "compound": "Cc1cc(C)cc(C(=O)N2CC[C@@H](N3CCC4(CC3)c3ccccc3CCn3ccnc34)C[C@H]2Cc2ccccc2)c1 (relative stereo) [Compound 119]",
    "units of measure": "%",
    "result value": 9.3
  },
  {
    "compound": "O=C(c1ccc2ncsc2c1)N1CC[C@@H](N2CCC(C3c4ccccc4Cn4c3nc3ccccc34)CC2)C[C@@H]1Cc1ccccc1 (stereo partly drawn) [Compound 102]",
    "units of measure": "%",
    "result value": 17
  },
  {
    "compound": "Cn1ccc2c1CCn1ccnc1C2=C1CCN([C@H]2CCN(C(=O)c3cc(C(F)(F)F)cc(C(F)(F)F)c3)[C@@H](Cc3ccccc3)C2)CC1 (racemic) [Compound 3]",
    "units of measure": "%",
    "result value": 37.3
  }
]

What value of % inhibition of the response to 10^-9 M substance P on Substance P Induced Relaxation of the Pig Coronary Arteries does O=C(c1cccc(C(F)(F)F)c1)N1CCC(N2CCC(C3c4ccccc4Cn4c3nc3ccccc34)CC2)CC1Cc1ccccc1 (stereo not drawn) [Compound 74] have?
8.6

* * *

System: Substance P Induced Relaxation of the Pig Coronary Arteries
assay summary: Antagonism of substance P induced relaxation of the pig coronary arteries
test parameters: test compound concentration 3 × 10^-9 (unit not given), 30 min incubation
Reported % inhibition of the response to 10^-9 M substance P values follow for various compounds

Below: 2 compounds and their reported % inhibition of the response to 10^-9 M substance P.
[
  {
    "compound": "Cc1cc(C)cc(C(=O)N2CCC(N3CCC(=C4c5ccc(Cl)cc5CCn5ccnc54)CC3)CC2Cc2ccccc2)c1 (stereo not drawn)",
    "result value": "82.7%"
  },
  {
    "compound": "Cc1cc(C)cc(C(=O)N2CCC(N3CCC(=C4c5ccccc5OCn5ccnc54)CC3)CC2Cc2ccccc2)c1 (stereo not drawn)",
    "result value": "83.0%"
  }
]

May I ask what % inhibition of the response to 10^-9 M substance P has been recorded for O=C(c1cc(C(F)(F)F)cc(C(F)(F)F)c1)N1CC[C@H](N2CCC(=C3c4ccccc4CCn4c(Cl)cnc43)CC2)C[C@@H]1Cc1ccccc1 (relative stereo) ?
49.0%

* * *

System: Substance P Induced Relaxation of the Pig Coronary Arteries
assay summary: Antagonism of substance P induced relaxation of the pig coronary arteries
test parameters: test compound concentration 3 × 10^-9 (unit not given), 30 min incubation
Lab note: anything with % inhibition of the response to 10^-9 M substance P at or over 40% counts as Criterion met; the rest go in Criterion not met.

[
  {
    "compound": "COC(=O)c1cnc2n1CCc1ccccc1C2=C1CCN([C@H]2CCN(C(=O)c3cc(C)cc(C)c3)[C@@H](Cc3ccccc3)C2)CC1 (relative stereo) [Compound 40]",
    "discrete label": "Criterion not met"
  },
  {
    "compound": "Cc1c(C(=O)N2CC[C@@H](N3CCC(C4c5ccccc5Cn5c4nc4ccccc45)CC3)C[C@@H]2Cc2ccccc2)oc2ccccc12 (some centres unmarked) [Compound 101]",
    "discrete label": "Criterion not met"
  },
  {
    "compound": "Cc1ccc2c(c1)CCn1ccnc1C2=C1CCN([C@H]2CCN(C(=O)c3cc(C(F)(F)F)cc(C(F)(F)F)c3)[C@@H](Cc3ccccc3)C2)CC1 (relative stereo) [Compound 50]",
    "discrete label": "Criterion not met"
  }
]

Kindly determine if % inhibition of the response to 10^-9 M substance P recorded for O=C(c1ccccc1)N1CCC(N2CCC(C3c4ccccc4Cn4c3nc3ccccc34)CC2)CC1Cc1ccccc1 (centres unmarked) [Compound 73] is above or exactly 40%.
Criterion not met

For O=C(c1cc(C(F)(F)F)cc(C(F)(F)F)c1)N1CC[C@H](N2CCC(=C3c4ccccc4CCn4c3nc(CO)c4CO)CC2)C[C@H]1Cc1ccccc1 (relative stereo) [Compound 49] then?
Criterion met

* * *

Listing: minimal effective dose of selected compounds
Test system: Substance P Induced Plasma Extravasation
assay summary: Antagonism of substance P induced plasma extravasation in guinea-pigs
Type: in vivo, guinea-pig
test parameters: Cavia porcellus, sc, 10 min; s.c., 1 hour prior to substance P; nose; read-out: lowest active dose (LAD), nose
Number only, in mg/kg; omit the unit.

# annotated cases, reported minimal effective dose shown
[
  {
    "compound": "O=C(c1cc(C(F)(F)F)cc(C(F)(F)F)c1)N1CC[C@H](N2CCC3(CC2)c2ccccc2CCn2ccnc23)C[C@@H]1Cc1ccccc1 (relative stereo)",
    "units of measure": "mg/kg",
    "minimal effective dose": 2.5
  },
  {
    "compound": "O=C(c1cc(C(F)(F)F)cc(C(F)(F)F)c1)N1CC[C@@H](N2CCC(=C3c4ccccc4CCn4ccnc43)CC2)C[C@@H]1Cc1ccccc1 (relative stereo)",
    "units of measure": "mg/kg",
    "minimal effective dose": 10
  },
  {
    "compound": "Cc1cnc2n1CCc1ccccc1C2=C1CCN([C@H]2CCN(C(=O)c3cc(C(F)(F)F)cc(C(F)(F)F)c3)[C@H](Cc3ccccc3)C2)CC1 (relative stereo)",
    "units of measure": "mg/kg",
    "minimal effective dose": 2.5
  },
  {
    "compound": "Cc1cnc2n1CCc1ccccc1C2=C1CCN([C@H]2CCN(C(=O)c3cc(C(F)(F)F)cc(C(F)(F)F)c3)[C@@H](Cc3ccccc3)C2)CC1 (relative stereo)",
    "units of measure": "mg/kg",
    "minimal effective dose": 10
  },
  {
    "compound": "Cc1cc(C)cc(C(=O)N2CC[C@@H](N3CCC(=C4c5ccccc5CCn5c(CO)cnc54)CC3)C[C@@H]2Cc2ccccc2)c1 (relative stereo)",
    "units of measure": "mg/kg",
    "minimal effective dose": 2.5
  },
  {
    "compound": "Cc1cc(C)cc(C(=O)N2CC[C@@H](N3CCC4(CC3)c3ccccc3CCn3ccnc34)C[C@@H]2Cc2ccccc2)c1 (relative stereo)",
    "units of measure": "mg/kg",
    "minimal effective dose": 2.5
  },
  {
    "compound": "Cc1cc(C)cc(C(=O)N2CC[C@H](N3CCC(=C4c5ccsc5C(=O)Cn5ccnc54)CC3)C[C@@H]2Cc2ccccc2)c1 (relative stereo)",
    "units of measure": "mg/kg",
    "minimal effective dose": 10
  }
]

Now, please, on to the next compound.
Recorded minimal effective dose for Cn1ccc2c1CCn1ccnc1C2=C1CCN([C@H]2CCN(C(=O)c3cc(C(F)(F)F)cc(C(F)(F)F)c3)[C@@H](Cc3ccccc3)C2)CC1 (racemic) , please?
2.5

* * *

The following molecules are shown together with reported % inhibition of the response to 10^-9 M substance P values.
Test system: Substance P Induced Relaxation of the Pig Coronary Arteries
assay summary: Antagonism of substance P induced relaxation of the pig coronary arteries
test parameters: test compound concentration 3 × 10^-9 (unit not given), 30 min incubation
Entry rule: numbers only, all in %.

Previously resolved entries follow.
[
  {
    "molecule": "Cc1cc(C)cc(C(=O)N2CC[C@H](N3CCC(=C4c5ccsc5CCn5ccnc54)CC3)C[C@H]2Cc2ccccc2)c1 (relative stereo)",
    "target": "Substance P Induced Relaxation of the Pig Coronary Arteries",
    "units of measure": "%",
    "result value": 42.9
  },
  {
    "molecule": "O=C(c1cc(C(F)(F)F)cc(C(F)(F)F)c1)N1CCC(N2CCC(C3c4ccccc4CCn4c3nc3ccccc34)CC2)CC1Cc1ccc(F)c(F)c1 (stereo not drawn)",
    "target": "Substance P Induced Relaxation of the Pig Coronary Arteries",
    "units of measure": "%",
    "result value": 64.4
  }
]

Bench note: what % inhibition of the response to 10^-9 M substance P did O=Cc1cnc2n1CCc1ccccc1C2=C1CCN([C@@H]2CCN(C(=O)c3cc(C(F)(F)F)cc(C(F)(F)F)c3)[C@@H](Cc3ccccc3)C2)CC1 (relative stereo) show?
98.9

What would you report for Cc1cc(C)cc(C(=O)N2CC[C@H](N3CCC(=C4c5ccsc5C(=O)Cn5ccnc54)CC3)C[C@@H]2Cc2ccccc2)c1 (relative stereo) ?
22.6

Then this molecule: Cc1cc(C)cc(C(=O)N2CCC(N3CCC(=C4c5ccn(C)c5CCn5cc(C)nc54)CC3)CC2Cc2ccccc2)c1 (stereo not drawn)
15.3

What do you have for O=C(c1cc(C(F)(F)F)cc(C(F)(F)F)c1)N1CC[C@@H](N2CCC(C3c4ccccc4CCn4c3nc3ccccc34)CC2)C[C@@H]1Cc1ccc(Cl)c(Cl)c1 (mixture of isomers) ?
61.4
